- Assay Notes: Toxicological evaluation (with toxicokinetics) of rats administered for 21 consecutive days
- Stated Conditions: male, SD, rat, in vivo, po, 3 mg/kg/day, male, oral 3 mg/kg/day, Day 1
Measured Metric: Cmax (nM)
Please reply with the bare figure in nM and do not write the unit itself.

Lab book: Cmax of `Cn1cc(-c2cnc(CNc3nccn4c(-c5cc(F)cc(F)c5)cnc34)cn2)ccc1=O` noted as 1880

----------
- Assay Notes: Toxicological evaluation (with toxicokinetics) of rats administered for 21 consecutive days
- Stated Conditions: male, SD, rat, in vivo, po, 10 mg/kg/day, male, oral 10 mg/kg/day, Day 1
Measured Metric: Cmax (µM)
Field format: number, assumed µM, no unit text.

The recorded Cmax for entry `Cn1cc(-c2cnc(CNc3nccn4c(-c5cc(F)cc(F)c5)cnc34)cn2)ccc1=O` equals 2.96

----------
- Assay Notes: Toxicological evaluation (with toxicokinetics) of rats administered for 21 consecutive days
- Stated Conditions: female, SD, rat, in vivo, po, 1 mg/kg/day, female, oral 1 mg/kg/day, Day 1
Measured Metric: Tmax (h)
The reply should be a number in h, with the unit left off.

The value of Tmax measured for the compound Cn1cc(-c2cnc(CNc3nccn4c(-c5cc(F)cc(F)c5)cnc34)cn2)ccc1=O [Compound 2] turned out to be 4

----------
- Assay Notes: Toxicological evaluation (with toxicokinetics) of rats administered for 21 consecutive days
- Stated Conditions: male, SD, rat, in vivo, po, 1 mg/kg/day, male, oral 1 mg/kg/day, Day 1
Measured Metric: Tmax (h)
Reply with just the number (in h).

Lab note: measured Tmax of `Cn1cc(-c2cnc(CNc3nccn4c(-c5cc(F)cc(F)c5)cnc34)cn2)ccc1=O` was 8

----------
- Assay Notes: Toxicological evaluation (with toxicokinetics) of rats administered for 21 consecutive days
- Stated Conditions: male, SD, rat, in vivo, po, 10 mg/kg/day, male, oral 10 mg/kg/day, Day 1, read-out: AUC0-24 h
Measured Metric: AUC(0-t) (µM·h)
Express it in µM·h; write the number only.

Form: compound = `Cn1cc(-c2cnc(CNc3nccn4c(-c5cc(F)cc(F)c5)cnc34)cn2)ccc1=O` ; AUC(0-t) = 47.4

----------
- Assay Notes: Toxicological evaluation (with toxicokinetics) of rats administered for 21 consecutive days
- Stated Conditions: female, SD, rat, in vivo, po, 1 mg/kg/day, female, oral 1 mg/kg/day, Day 21
- Method: • SD rats (male and female, 7 to 8 weeks old, Zhejiang Vital River Laboratory Animal Technology Co., Ltd.). • In this experiment, SD rats were administered orally once a day with a test substance, a candidate drug for treating cancer, for 21 days to detect its potential toxicity. At the same time, the toxicokinetic (TK) characteristics of the compound in the animals were examined. 126 rats (63 per gender) were divided into 6 groups. […]
Measured Metric: Tmax (h)
State just the number; it will be interpreted in h.

// Cn1cc(-c2cnc(CNc3nccn4c(-c5cc(F)cc(F)c5)cnc34)cn2)ccc1=O [Compound 2] : Tmax value = 8

Cited source: patent US20240383906A1
